Values from patent US12172990B2

# target or system: UniProt:Q9NSU2
# Sequence (Q9NSU2 whole entry): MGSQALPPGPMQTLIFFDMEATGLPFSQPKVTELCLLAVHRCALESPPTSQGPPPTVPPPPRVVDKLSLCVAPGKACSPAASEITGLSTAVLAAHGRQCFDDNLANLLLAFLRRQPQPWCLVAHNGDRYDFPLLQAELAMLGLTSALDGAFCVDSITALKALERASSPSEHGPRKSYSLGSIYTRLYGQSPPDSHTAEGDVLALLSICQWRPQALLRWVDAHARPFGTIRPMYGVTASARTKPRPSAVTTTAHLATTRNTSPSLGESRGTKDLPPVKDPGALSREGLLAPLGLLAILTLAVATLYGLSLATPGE
# assay procedure: TREX1 Biochemical Assay (fluorescence assay measuring degradation of dsDNA substrate)
# run parameters: 150 pM TREX1, 60 nM dsDNA substrate, 25 minutes at room temperature

{"compound": "Cc1cc(-c2nc(C(=O)Nc3cnoc3)c(O)c(=O)n2C)cc(N2CCN(C)CC2)c1 [Example 33]", "IC50": "100 to 1000 nM"}
{"compound": "Cn1c(C(NC(=O)OCc2ccccc2)c2ccccc2)nc(C(=O)Nc2cnoc2)c(O)c1=O (stereo not shown) [Example 23]", "IC50": "100 to 1000 nM"}
{"compound": "Cn1c(C2CCCN(C(=O)c3cncnc3)C2)nc(C(=O)Nc2cnoc2)c(O)c1=O (stereo not shown) [Example 58]", "IC50": "100 to 1000 nM"}
{"compound": "CN(C)CCCC(=O)N1CCCC(c2nc(C(=O)Nc3cnoc3)c(O)c(=O)n2C)C1 (stereo not shown) [Example 60]", "IC50": "1000 to 10000 nM"}
